biological target: c-Src SH2; experiment: SH2 binding enrichment of the phosphorylated peptide, bacterial display (enrichment ratio); higher = better substrate or ligand; peptides without Tyr show the background;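 further: peptide library displayed on the E. coli surface as eCPX fusions, selected cells deep-sequenced, score is each peptide's frequency after selection divided by its frequency in the input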
READOUT: SH2 binding enrichment

Previously resolved entries follow.
[[record]]
query_sequence = "RTEAQYRFIFM [PTPN11_Y511_Q506R_YF]"
data_value = 0.409

[[record]]
query_sequence = "FEKNVYVDKNL [PTCHD3_Y688]"
data_value = 0.542

[[record]]
query_sequence = "WIPIQYLIISE [NOG_Y222_P223L]"
data_value = 0.923

[[record]]
query_sequence = "GDFFRYLAEVA [YWHAG_Y133_YF]"
data_value = 0.469

[[record]]
query_sequence = "PSARTYCYKQE [KLHDC9_Y175]"
data_value = 0.643

[[record]]
query_sequence = "FIPSNYVAEDR [FRK_Y104_YF]"
data_value = 0.579

[[record]]
query_sequence = "GKMSQYLESMQ [CYB5R3_Y130]"
data_value = 0.415

[[record]]
query_sequence = "FGSVMYEFVGK [SLC18A1_Y251]"
data_value = 0.591


a = KRLWDYGMSSS [F8_Y1728_E1723K]
b = CTTIHSNYMCN [TP53_Y234_Y234S]
c = SLYPGYNFRYA [P2RX7_Y291]
Input line: Arrange these 3 sequences in increasing order of SH2 binding enrichment. Use the labels to give the requested order.
Output line: a, c, b
(a: 0.457, c: 0.666, b: 1.02)
